B1: ZNF649 (parent)
chain: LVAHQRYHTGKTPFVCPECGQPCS

Variants of: B1
PROTOCOL_TEXT: protein stability index of a GFP-peptide fusion (GPS, HEK-293T) (PSI 1-6); higher = more stable;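 further: lentivirally expressed fusions sorted by FACS into six bins by GFP to DsRed ratio, PSI derived from sequencing read proportions per bin multiplied by bin number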
CONDITION_LABEL: c terminus: a fixed tail appended
Please enter YES where protein stability index is greater than or equal to 3, and NO where it is lower.

Check out these entries, answers already filled in.
Please check the record V2N and state if its protein stability index is at or above 3.
YES

Please check the record T12P and state if its protein stability index is at or above 3.
YES

Please check the record P22D and state if its protein stability index is at or above 3.
YES

Please check the record P22F and state if its protein stability index is at or above 3.
YES

Please check the record K11T and state if its protein stability index is at or above 3.
YES

Please check the record G10E and state if its protein stability index is at or above 3.
YES

Please check the record K11C and state if its protein stability index is at or above 3.
YES

Please check the record E18Q and state if its protein stability index is at or above 3.
YES

New cases:
Please check the record G20T and state if its protein stability index is at or above 3.
YES

Please check the record G10R and state if its protein stability index is at or above 3.
NO

Please check the record E18M and state if its protein stability index is at or above 3.
NO

Please check the record R6N and state if its protein stability index is at or above 3.
YES

Please check the record G10D and state if its protein stability index is at or above 3.
YES

Please check the record S24Y and state if its protein stability index is at or above 3.
NO

Please check the record P13M and state if its protein stability index is at or above 3.
YES

Please check the record A3P and state if its protein stability index is at or above 3.
YES
